assay: chemical genetic growth profiling, strain panel (AID 1159580);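 further: tested at 20 µM; growth read once vehicle control cultures reached saturation at 30 °C; 1 = growth at the plate median or of vehicle wells; lower values mean less growth of the strain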; settings: S. cerevisiae deletion strains, growth OD, locus YER155C, strain BEM2
In all, about 5,500 compounds went through this assay and about 2,000 (36%) were called active. Another 18% or so got no clear call; they are omitted. No stated cut-off is given here; in the data, active means normalized growth mostly below about 0.91 (no sharp cut-off); inconclusive means no clear call, values can overlap the other calls; inactive means mostly above about 0.92. Some of the results follow.
Pick one: active, inactive

// outcome(item) with item = "COc1ccc2c(=O)c(-c3cc4c(cc3OC)OCO4)coc2c1"
inactive

Entry to check: "COc1cc2c(cc1-c1coc3c4c(c(OC)cc3c1=O)OC(C)(C)C=C4)OCO2"
inactive

Ok, now "Nc1ncnc2nc[nH]c12"
active

And then "Cc1ncc([N+](=O)[O-])n1CCO" , what is it?
inactive

Likewise for CC(=O)OCC(=O)[C@@]1(O)CCC2C3CCC4=CC(=O)CC[C@]4(C)[C@@]3(F)[C@@H](O)C[C@@]21C (stereo not given in full) ?
inactive

Can you handle CC1=C(C(=O)O)N2C(=O)[C@@H](NC(=O)[C@H](N)C3=CCC=CC3)C2SC1 (stereo not given in full) next?
inactive

Also "Cn1c([N+](=O)[O-])cnc1COC(N)=O" ?
inactive

# iterate: "O=c1c(-c2ccc3c(c2)OCO3)coc2cc(O)ccc12"
inactive

Then this molecule: "O=c1cc(-c2ccc(O)cc2)oc2cc(O[C@@H]3O[C@H](CO)[C@@H](O)[C@H](O)[C@H]3O[C@@H]3OC[C@](O)(CO)[C@H]3O)cc(O)c12"
inactive

Same for "c1coc(CNc2ncnc3nc[nH]c23)c1"
inactive

* * *

assay: chemical genetic growth profiling, strain panel (AID 1159580);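 further: tested at 20 µM; growth read once vehicle control cultures reached saturation at 30 °C; 1 = growth at the plate median or of vehicle wells; lower values mean less growth of the strain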; details: S. cerevisiae deletion strains, growth OD, locus YLR027C, strain aat2, hits give low values
The campaign covered roughly 5,500 compounds. About 2,000 (36%) were called active. About 18% were inconclusive and are not listed. The list shows a part of the results.
reported_endpoint: normalized growth
// keep it numeric: no unit symbol after the value

Quick one: normalized growth for C[C@]12C=CC(=O)C=C1CCC1C2CC[C@]2(C)C(=O)CCC12 (stereo partly specified) ?
0.984

// query: C[C@]12C=CC(=O)C=C1CCC1C2C(=O)C[C@@]2(C)C1CC[C@]2(O)C(=O)CO (stereo partly specified)
0.978

And what about the molecule "O=C1c2ccccc2-c2cccc3cccc1c23" ?
0.875

Can you check "COc1ccc(Cc2nccc3cc(OC)c(OC)cc23)cc1OC" next?
0.994

Next entry: "O=C(O)c1cccc(O)c1O"
1.01

Next molecule: OC[C@@H](O)C(O[C@@H]1O[C@H](CO)[C@H](O)[C@H](O)[C@H]1O)[C@H](O)[C@@H](O)CO (stereo partly specified)
0.991

* * *

test: chemical genetic growth profiling, strain panel (AID 1159580);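 further: tested at 20 µM; growth read once vehicle control cultures reached saturation at 30 °C; 1 = growth at the plate median or of vehicle wells; lower values mean less growth of the strain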; conditions: S. cerevisiae deletion strains, growth OD, locus YDR297W, strain sur2, hits give low values
The campaign covered roughly 5,500 compounds. About 2,000 (36%) were called active. Inconclusive results (about 18%) are left out. The list shows a part of the results.
reported_endpoint: normalized growth

Could you tell me which normalized growth is on file for CC(=O)OC1CCC2C3CCc4cc(O)ccc4C3CCC12C (stereo not given) ?
0.993 (inactive)

Then CC(=O)Oc1ccc2c(c1)CCC1C2CC[C@@]2(C)C1CC[C@@H]2OC(C)=O (stereo not given in full) ?
0.988 (inactive)

Same lookup for C[C@]12CCC3c4ccc(O)cc4CCC3C1CC[C@@H]2OC(=O)CCC1CCCC1 (stereo not given in full) , please.
1.01 (inactive)

Then this molecule: CC1=C(C(=O)O)N2C(=O)[C@@H](NC(=O)[C@H](N)C3=CCC=CC3)C2SC1 (stereo not given in full)
1.02 (inactive)

How about "Nc1ncnc2nc[nH]c12" ?
1.01 (inactive)

Entry CCC(=O)O[C@H]1CCC2C3CCc4cc(O)ccc4C3CC[C@@]21C (stereo not given in full) please
0.989 (inactive)

Next molecule up: O=C1OC(=O)C2C3CCC(O3)C12 (stereo not given)
0.998 (inactive)

Moving on to CC(=O)O[C@H]1CC2CCC3C(CC[C@@]4(C)C3C[C@H]([N+]3(C)CCCCC3)[C@@H]4OC(C)=O)[C@@]2(C)C[C@@H]1[N+]1(C)CCCCC1 (stereo not given in full)
1.01 (inactive)

Further, for "c1coc(CNc2ncnc3nc[nH]c23)c1" ?
0.997 (inactive)

Please do the same for CCCC(=O)Nc1ncnc2c1ncn2C1O[C@@H]2COP(=O)(O)O[C@H]2[C@H]1OC(=O)CCC (stereo not given in full) as well.
0.985 (inactive)
